- EXPERIMENT_SUMMARY: Resazurin cell viability assay in HaCaT keratinocytes
- Format: cell-based, human
- EXPERIMENTAL_CONDITIONS: human, HaCaT keratinocytes, resazurin, read-out: IC50 (cell viability, cytotoxicity)
Each item that follows carries a reported IC50 at 24 h.
PROPERTY_LABEL: IC50 at 24 h (µM)

1) COc1cc(Br)cc(/C=C/C(=O)c2c(Br)c(Br)cc(OC)c2OC)c1OC [Chalcone 4]
11.7
2) COc1cccc(/C=C/C(=O)c2c(Br)c(Br)cc(OC)c2OC)c1OC [Chalcone 5]
30.4
3) COc1cccc(/C=C/C(=O)c2cccc(OC)c2OC)c1OC [Chalcone 6]
14.7
4) COc1ccc(/C=C/C(=O)c2ccc(OC)c(OC)c2)cc1OC [Chalcone 3]
62.1
